Below is a list of entries, each paired with its recorded 90% Neutralization ARPE (hCMV VR1814) value.
molecular target: hCMV UL130 and UL131A co-expressed in HEK293T cells (human cytomegalovirus, UniProt P16772 1-214); assay: cell-based or functional assay
Sequence (P16772 whole entry): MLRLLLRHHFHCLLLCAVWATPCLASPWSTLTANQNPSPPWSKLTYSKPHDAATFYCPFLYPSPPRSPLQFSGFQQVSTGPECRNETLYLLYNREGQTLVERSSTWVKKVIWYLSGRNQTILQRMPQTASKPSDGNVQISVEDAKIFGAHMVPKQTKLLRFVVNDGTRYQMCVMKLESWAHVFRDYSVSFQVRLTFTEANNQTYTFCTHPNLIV
Give your result in µg/mL as a bare value.

Worked set:
• 8L13 (antibody, V domains shown, human IgG mAb) VH: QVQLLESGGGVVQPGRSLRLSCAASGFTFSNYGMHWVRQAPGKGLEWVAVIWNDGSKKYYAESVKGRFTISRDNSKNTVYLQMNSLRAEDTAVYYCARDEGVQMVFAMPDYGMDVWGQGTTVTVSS VL: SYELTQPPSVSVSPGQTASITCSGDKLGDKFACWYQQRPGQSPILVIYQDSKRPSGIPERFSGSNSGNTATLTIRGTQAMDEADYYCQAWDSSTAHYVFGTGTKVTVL = 0.001
• 4I22 (antibody, V domains shown, human IgG mAb; also called 4I22-biotin) VH: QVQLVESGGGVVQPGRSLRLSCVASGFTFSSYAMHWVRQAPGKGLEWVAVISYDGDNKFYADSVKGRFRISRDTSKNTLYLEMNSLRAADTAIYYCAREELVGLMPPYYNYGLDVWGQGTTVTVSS VL: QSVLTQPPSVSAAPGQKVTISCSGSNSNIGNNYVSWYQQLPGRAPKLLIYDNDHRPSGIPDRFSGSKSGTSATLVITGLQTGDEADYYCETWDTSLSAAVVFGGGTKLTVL = 0.0015

Let us move to another entry and its 90% Neutralization ARPE (hCMV VR1814).
query: // 90% Neutralization ARPE (hCMV VR1814) lookup, key: 10P3 (antibody, V domains shown, human IgG mAb) VH: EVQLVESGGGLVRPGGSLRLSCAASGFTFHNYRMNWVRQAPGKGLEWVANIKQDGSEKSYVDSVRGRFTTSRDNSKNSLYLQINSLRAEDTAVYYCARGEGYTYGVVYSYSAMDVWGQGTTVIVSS VL: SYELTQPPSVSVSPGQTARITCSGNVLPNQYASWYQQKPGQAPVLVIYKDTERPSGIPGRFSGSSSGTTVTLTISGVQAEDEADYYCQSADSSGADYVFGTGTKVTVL
result: 0.0025

Data origin: patent US20100092481A1
